# Test system: SK-MEL-28
# assay comment: NCI tumour cell line growth inhibition, 48 h
Active and inactive are the calls of the source. Cut-off read from the data, not from the text of the source: active = GI50 up to about 1.1 µM and inactive = higher.
GI50 for assorted molecules

# molecule, target desc, GI50
measured = [
    ("CC1=CC(=O)c2ccccc2C1=O", "SK-MEL-28", "4.94 µM (inactive)"),
    ("C/C(=C\\CNc1ncnc2[nH]c(Cl)nc12)CO", "SK-MEL-28", "> 100 µM (inactive)"),
    ("NCCSc1nc(N)c2ncn(C3OC(CO)C(O)C3O)c2n1 (stereo not given)", "SK-MEL-28", "> 100 µM (inactive)"),
    ("Cc1ccc(/C=C2\\Cc3cccc(C)c3C2=O)c(C(=O)O)c1", "SK-MEL-28", "97.3 µM (inactive)"),
    ("C#CCN(N=O)C(=O)NC(CCCCNC(=O)OCc1ccccc1)C(=O)OCc1ccccc1 (stereo not given)", "SK-MEL-28", "26.1 µM (inactive)"),
]

###

# System: HOP-18
# assay comment: NCI tumour cell line growth inhibition, 48 h
Calls of active or inactive are those of the source. Rule as the data show it: active = GI50 up to about 1.1 µM and inactive = higher.
GI50 values by entry

# molecule, GI50
data = [
    ("CCOP(=O)(OCC)C(C(=O)OC)C(=O)C(=O)Nc1c(C)cc(Br)cc1C (stereo not given)", "49.7 µM (inactive)"),
    ("CCC1=C(C(C)=O)[C@@H]2CCCCC[C@@H](C(=O)OC)C2C1=O (stereo not given in full)", "57.9 µM (inactive)"),
    ("CN(C)CCNC(=O)c1cccc2c1nc(-c1ccncc1)c1ccccc12", "9.91 µM (inactive)"),
    ("Cc1c(C(=O)/C=C/c2ccco2)[n+]([O-])c2ccccc2[n+]1[O-]", "> 100 µM (inactive)"),
    ("O=C(/C=C/c1c(O)ccc2ccccc12)c1cccc2ccccc12", "58.6 µM (inactive)"),
]

###

# Tested on: MCF7
# assay comment: NCI tumour cell line growth inhibition, 48 h
Active and inactive are the calls of the source. No stated cut-off is given here; in the data, active = GI50 up to about 1.1 µM and inactive = higher.
measured property: GI50

# compound, result
rows = [
    ("O=C(O)CNC(=O)c1ccc2cc(C(=O)N3CC(CCl)c4ccc([N+](=O)[O-])cc43)[nH]c2c1 (stereo unspecified)", "> 100 µM (inactive)"),
    ("COC(=O)c1cc(C#N)[nH]c1-c1cc(Br)cs1", "7.24 µM (inactive)"),
    ("CCOC(=O)/C=C/C1OC(C)(C)OC1/C=C/C(=O)OCC (stereo unspecified)", "30.8 µM (inactive)"),
    ("Cc1cc(Br)c(N2C3=C(CC4=C2CCCC4=O)C(=O)CCC3)c(Br)c1", "33.3 µM (inactive)"),
    ("CC(=O)/C(=N\\N=C(N)N)c1ccccc1", "> 100 µM (inactive)"),
    ("C/C(=C1\\C(=O)C(c2ccccc2)N(c2ccccc2)C1=O)c1ccc(Cl)cc1 (stereo unspecified)", "35.1 µM (inactive)"),
    ("NC(Cc1ccc(O)c(O)c1)P(=O)(O)O (stereo unspecified)", "> 10 µM (inactive)"),
    ("CC(=O)On1c(-c2ccccc2-c2nc3ccccc3n2OC(C)=O)nc2ccccc21", "26.7 µM (inactive)"),
    ("COc1ccc(C23OCC(Cc4cc(OC)c(OC)cc42)C3COC(C)=O)cc1OC (stereo unspecified)", "> 100 µM (inactive)"),
    ("CCOC(CNCCC(=O)OC)OCC", "> 10 µM (inactive)"),
    ("CCOC(=O)Cn1c(=O)c2nc(SC)sc2n(CC)c1=S", "> 100 µM (inactive)"),
]

Data provenance is ChEMBL document CHEMBL1201862.
